- System: scopolamine induced amnesy
- method_description: passive avoidance test, scopolamine induced amnesia (intraperitoneal administration)
- Type: in vivo, rat
- run_conditions: dose 4.10^-2 mmoli/kg i.p.; scopolamine 1 mg/kg
Below, each of the molecules is paired with its reported Percent amnesia value.
The response must be a number in % with no trailing unit.

Worked examples follow.
- COC(=O)CN1CCCC[C@H](NC(=O)[C@@H](N)COP(=O)(O)OC[C@@H](COC(C)=O)OC(C)=O)C1=O [MGS 1]: 20
- COC(=O)CN1CCCC[C@H](NC(=O)[C@@H](N)COP(=O)(O)OC[C@H](O)CO)C1=O [MGS 2]: 20
- N[C@@H](COP(=O)(O)OC[C@H](O)CO)C(=O)O [GFS, glycerophosphoryl-serine, reference compound]: 40

Consider the additional molecule presented here.
Query block: Reported Percent amnesia, molecule O=CN[C@H]1CCCCNC1=O [N-Formylamino ε -caprolactame, reference compound] : ____
Result block: 40
